B1: YPEL3 (parent)
chain: SKPKTFQAYLDDCHRRYSCAHCRA

# Variants of: B1
# ASSAY_PROCEDURE: protein stability index of a GFP-peptide fusion (GPS, HEK-293T) (PSI 1-6); higher = more stable;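 also: lentivirally expressed fusions sorted by FACS into six bins by GFP to DsRed ratio, PSI derived from sequencing read proportions per bin multiplied by bin number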
# EXPERIMENTAL_CONTEXT: c terminus: a fixed tail appended
Classification field: enter criterion met for protein stability index values not below 2, criterion not met for values below it.

[[record]]
mutant_designation = "F6M"
qualitative_label = "criterion met"

[[record]]
mutant_designation = "D11C"
qualitative_label = "criterion met"

[[record]]
mutant_designation = "R23H"
qualitative_label = "criterion met"

[[record]]
mutant_designation = "K4D"
qualitative_label = "criterion not met"

[[record]]
mutant_designation = "S1R"
qualitative_label = "criterion not met"

[[record]]
mutant_designation = "S18Y"
qualitative_label = "criterion not met"

[[record]]
mutant_designation = "K4R"
qualitative_label = "criterion not met"

[[record]]
mutant_designation = "K4S"
qualitative_label = "criterion met"

[[record]]
mutant_designation = "R15I"
qualitative_label = "criterion met"

[[record]]
mutant_designation = "C22P"
qualitative_label = "criterion met"

[[record]]
mutant_designation = "D12L"
qualitative_label = "criterion met"

[[record]]
mutant_designation = "H14W"
qualitative_label = "criterion met"

[[record]]
mutant_designation = "C22S"
qualitative_label = "criterion not met"

[[record]]
mutant_designation = "R15E"
qualitative_label = "criterion met"

[[record]]
mutant_designation = "Y9C"
qualitative_label = "criterion met"

[[record]]
mutant_designation = "T5P"
qualitative_label = "criterion met"

[[record]]
mutant_designation = "R15V"
qualitative_label = "criterion not met"

[[record]]
mutant_designation = "D12G"
qualitative_label = "criterion met"

[[record]]
mutant_designation = "H14M"
qualitative_label = "criterion met"

[[record]]
mutant_designation = "S1C"
qualitative_label = "criterion met"

[[record]]
mutant_designation = "Q7W"
qualitative_label = "criterion not met"

[[record]]
mutant_designation = "H14G"
qualitative_label = "criterion met"

[[record]]
mutant_designation = "R16Y"
qualitative_label = "criterion not met"

[[record]]
mutant_designation = "Y9P"
qualitative_label = "criterion met"

[[record]]
mutant_designation = "P3W"
qualitative_label = "criterion not met"

[[record]]
mutant_designation = "P3D"
qualitative_label = "criterion met"

[[record]]
mutant_designation = "Q7H"
qualitative_label = "criterion met"

[[record]]
mutant_designation = "S1F"
qualitative_label = "criterion not met"

[[record]]
mutant_designation = "T5M"
qualitative_label = "criterion met"

[[record]]
mutant_designation = "F6C"
qualitative_label = "criterion met"

[[record]]
mutant_designation = "R16I"
qualitative_label = "criterion not met"

[[record]]
mutant_designation = "R23N"
qualitative_label = "criterion met"

[[record]]
mutant_designation = "A24K"
qualitative_label = "criterion met"

[[record]]
mutant_designation = "A20I"
qualitative_label = "criterion not met"

[[record]]
mutant_designation = "K4A"
qualitative_label = "criterion met"

[[record]]
mutant_designation = "L10V"
qualitative_label = "criterion not met"

[[record]]
mutant_designation = "S18M"
qualitative_label = "criterion met"

[[record]]
mutant_designation = "C19F"
qualitative_label = "criterion not met"

[[record]]
mutant_designation = "Y9W"
qualitative_label = "criterion not met"

[[record]]
mutant_designation = "T5A"
qualitative_label = "criterion met"

[[record]]
mutant_designation = "C22G"
qualitative_label = "criterion met"

[[record]]
mutant_designation = "K2E"
qualitative_label = "criterion not met"

